# experimental.protocol: Hydrogen peroxide scavenging assay
# conditions: Comp. Conc. 500 µg/mL; mean ± S.E.M, n = 3
measured.property: H2O2 free radical scavenging ability (%)
Unit % implied. Number only.

Need H2O2 free radical scavenging ability of O=C([O-])Cc1ccccc1Cl.O=C([O-])Cc1ccccc1Cl.O=C([O-])Cc1ccccc1Cl.O=C([O-])Cc1ccccc1Cl.Oc1ccncc1.Oc1ccncc1.[Cu+2].[Cu+2] [Complex 3, Cun(2-ClC6H4COO)4(4-OHPy)2] , thanks. 78.58

Need H2O2 free radical scavenging ability of N#Cc1ccncc1.N#Cc1ccncc1.O=C([O-])Cc1cccc(Cl)c1.O=C([O-])Cc1cccc(Cl)c1.O=C([O-])Cc1cccc(Cl)c1.O=C([O-])Cc1cccc(Cl)c1.[Cu+2].[Cu+2] [Complex 5, Cu2(3-ClC6H4COO)4(4-CNPy)2] , thanks. 80.76

Need H2O2 free radical scavenging ability of N#Cc1cccnc1.N#Cc1cccnc1.O=C([O-])Cc1cccc(Cl)c1.O=C([O-])Cc1cccc(Cl)c1.O=C([O-])Cc1cccc(Cl)c1.O=C([O-])Cc1cccc(Cl)c1.[Cu+2].[Cu+2] [Complex 4, Cu2(3-ClC6H4COO)4(3-CNPy)2] , thanks. 78.76

Need H2O2 free radical scavenging ability of O=C([O-])Cc1cccc(Cl)c1.O=C([O-])Cc1cccc(Cl)c1.O=C([O-])Cc1cccc(Cl)c1.O=C([O-])Cc1cccc(Cl)c1.Oc1ccncc1.Oc1ccncc1.[Cu+2].[Cu+2] [Complex 6, Cu2(3-ClC6H4COO)4(4-OHPy)2] , thanks. 78.62

API: the following record is the query input.
Need H2O2 free radical scavenging ability of N#Cc1ccncc1.N#Cc1ccncc1.O=C([O-])Cc1ccccc1Cl.O=C([O-])Cc1ccccc1Cl.O=C([O-])Cc1ccccc1Cl.O=C([O-])Cc1ccccc1Cl.[Cu+2].[Cu+2] [Complex 2, Cu2(2-ClC6H4COO)4(4-CNPy)2] , thanks. 89.37
